Value source: the NTF2 design screens of Basanta et al. (2020)

# METHOD: protease stability score; higher = more stable; yeast display proteolysis, trypsin and chymotrypsin;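 note: log10 excess protease needed over predicted unfolded state with 0 meaning unfolded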
Respond with Yes for protease stability score values of 0.5 and above, No for values below.

MACROMOLECULE SEQUENCE | CATEGORY
DSEKIKDVARQLVRQIEENNPDEIVKLLDPNARADYGDKRISGHEKIADELRKFHERADRIRVETVEVHNGRIVIDLHVNINGRMQRFHVFADLHNGKIKRIEFQTG | Yes
DEELRKQAEEVMKAWQHGDEKTYMDLFDPNAKWEYGDDNITGRENMSDYMRKVRKEIRVHVQSVEVRAHNGRLEVVATEEREHNGRPDTVTVIMEAKAHNGKIQVVRVEERQ | No
DREDQEEVARHLVEVLERGDPQKMLELADPNVRAEVGDKRYHGREDLKSIMDELSRQVDRIQVVHLDVKGNTVRVTVKNRVNGVVVDLVIIFHFRNGKLRDVTIDARNEEQLKKREG | Yes
DEEEKKRQQEEIERLLHTGDHDRFSELMDKDVKMDVGEDRVHGRENVAKHLADEMKRIDHVNVQSVDVKGEKFDFSAQFRVNGQTVQRVIIMVQKNGKWKELSITVTDDDQLKRVES | No
DKEEVEKIAREALEAAVKGDEDKLKTYLGPDVKYVLGDQEYQGQQVAELVMKLIKKDGARLQLETLKVEGNTVQAQYQFHVDGVTRKAHITMKVKGGRVDEWQVHIDDHAKEALKKG | Yes
DEETLRQANRKIQEFLSTNNFDELAKQMDKDVQIRIGDKEVHGRKDAQKMLTDIKDDADHASVHHVDVRGDKAKVRFEVNHNGSVKDVTVTITFHNGRIKRAKWHDT | No
DDDDMKLAEEFAQAISTGDHNRVEENADKDARFDIGDKVVNGNHQRATEVKKEQDDQKVSVDINSMDATGNKVVAEINVDINNNGHPETQEHILHFTQDNGKIRHMEVKDDQ | No
DEHVKETFHSFLHAQTTGDPDKMHKLFDKDARVRYGDKVYHGRETLMRIFHKLRRNIRVDVKFEDIKVDNGKLHAEADMTINHDGKPRQKKVIIELVLHNGKIKQFNQELRG | Yes
DEEQAHRLNEVLKTGDFERLKDQADPNVRIEVGEKRYHGREQFQKFMTIVQETVDDVHVRSIKVRGDTVNVHMVLNVNGVKAEFIVEAHVDDGRVKEIRFRATDDEQKKNWRKIVQ | Yes
DESVKERMKRILETGDWKKLVEMADEDASVKVGEKEFHGREQVSDFFKELQDQADTQEIKHVSVHGEHVVNTMVIRFNGKEVHLVLTVQLTNGKIHSASVKFTSEEHHKIMLRAIS | No
DERAQDLVRQWLENVHTGDPSKLREQMDPNAHVVIGDRTFTGRENFAETVHHHLQDQRVQYDTMRIENEGEKARFRYKATVQHNGQPSKHQATAQLTLHNGRIQSLQMESTQ | No
DEDKHAQDHMDQLTRLRKHGNFEKLANMADEDVEVHYGDKQVHGREQVVKTIKSEADDVDHFDVKVQEYHVQGDHIHVVNEFTLERNGQYRTDEQQFTVQITNGSIRIKNMTKK | No
DENLNTLMTQFMRAIQRGDEKRAKQLADPNAEIKYGDRSIHGMDQHADTIRKIRRKMRVDVTEVSHTTDGEQVNVEVTAIFNHNGEPKKRKFQFSATISNGRIKQVEVQDSQ | Yes
DEELQDRFRRMIRIREEGDEQKLNEQVDPNVRLRVGDKEIKGREQLEEDQKRKNKQMRIRIKHLEVEAQGNKVRVSIHMTMRVNGRPFHFEFTANYTYHNGKLKHADVNIDPDFVREVHQ | No
DDDQNRRFKEMLEVRKTGDEHRLKQLLDPNARLNIGDKRIHGREEIARFMKTKFDESRSEVDVKDVKAHNGRISVTADFRNSSNGQPQRYTATMRATIHNGSFQEIQIDTEK | No
DEELQENAEHFMDDLKTGNEDSIKQNADPNAHFQIGDKTFHGREDFVKHIKKQRQHARIQLDVKNIDVQGDHVTINANVIVNVDGRPQSADVTILIRYHNGRIHTVLYSFSEKDKKKMES | Yes
DENELLKTFMDIFRRAIKTGDEKLLRTMMDKDVKARVGDKDVHGREEADKEFKKIWDHADHVDIKVKEVTINGDKAHVTMDAKFVVDGKSQKVNIHVKAEVKNGRLKAKHITMG | Yes
DDEARRVAETVMTAVSRGDEEKVKEMFDPNARFRVGNKEISGRENYADWLRKLQEHARVDVSDVKAKDQGDEVTAKVRFVLSVDGTPHTMNVDVHFSVDNGKIIDYKQRFDEDDLRRILK | No
DEKAQDILKEIANAIRTNNPSQLKNLLDPNAKVKIGDKEFHGMDQLQEDVQRKKEKMRVDFDVRRVEVQGETVHARARVVIHHNGKPATMTYSMIVHIKNGRVRELQVNISETDKEKQKS | Yes
DQENLELMNRLLEAISSNDESKFRRLVDPNVRVVIGDEQYHGRETLQKLLRDHNEHSRNDEHIHRVELHNGRVNMDVTREVDHNGRPQTDKFEIVATANNGKAVRMRFERTS | No
DEDALRVFDKLVKAWKNNDEDKMKKLMDPNVKVEYGDKQVHGMDEYLHSMVTRQRQIRVHFRVKDIKTRPGRVVANYEVEEENDGKPHHTKVRVTLKVHNGRVKQAEYDVKP | No
